All values here come from patent US9815835B2.

Measured IC50, listed per entry for reference.
# SYSTEM NAME: cap-dependent endonuclease (RNP fraction containing PB1•PB2•PA complex) (Influenza A virus, UniProt P15659)
# TEST METHOD NOTES: biochemical
# MEASUREMENT CONTEXT: RNP from A/WSN/33 virus, capped Cy3/BHQ2 30mer RNA substrate, 60 minutes at room temperature; read-out: CEN IC50
PARAMETER MEASURED: IC50 (nM)

- COMPOUND: "CC(C)N1CN(C2c3ccccc3CSc3cc(F)ccc32)n2ccc(=O)c(O)c2C1=O (stereo not shown)"
  PARAMETER MEASURED: "IC50"
  VALUE UNITS: "nM"
  MEASURED VALUE: 67
- COMPOUND: "CN1CCCC(N2CN(C3c4ccccc4CSc4ccccc43)n3ccc(=O)c(O)c3C2=O)C1 (stereo not shown)"
  PARAMETER MEASURED: "IC50"
  VALUE UNITS: "nM"
  MEASURED VALUE: 290
- COMPOUND: "CC(N1CN(C2c3ccccc3CSc3c(Cl)cccc32)n2ccc(=O)c(O)c2C1=O)C(F)(F)F (stereo not shown)"
  PARAMETER MEASURED: "IC50"
  VALUE UNITS: "nM"
  MEASURED VALUE: 122
- COMPOUND: "COCCN1C[C@H](C(c2ccccc2)c2ccccc2)n2cc(N)c(=O)c(O)c2C1=O"
  PARAMETER MEASURED: "IC50"
  VALUE UNITS: "nM"
  MEASURED VALUE: 358
- COMPOUND: "O=C(O)c1cn2c(c(O)c1=O)C(=O)N(CCOc1ccc(F)cc1)C[C@@H]2C(c1ccccc1)c1ccccc1"
  PARAMETER MEASURED: "IC50"
  VALUE UNITS: "nM"
  MEASURED VALUE: 74
- COMPOUND: "C[C@@H](N1CN(C2c3ccccc3CSc3ccccc32)n2ccc(=O)c(O)c2C1=O)C(C)(C)C (stereo partly shown)"
  PARAMETER MEASURED: "IC50"
  VALUE UNITS: "nM"
  MEASURED VALUE: 45
- COMPOUND: "O=C1c2c(O)c(=O)ccn2N(C2c3ccccc3CSc3ccccc32)CN1CC1(O)CCCCC1 (stereo not shown)"
  PARAMETER MEASURED: "IC50"
  VALUE UNITS: "nM"
  MEASURED VALUE: 164
- COMPOUND: "CN1C[C@H](C2c3ccccc3CSc3ccccc32)n2cc(C(=O)O)c(=O)c(O)c2C1=O (stereo partly shown)"
  PARAMETER MEASURED: "IC50"
  VALUE UNITS: "nM"
  MEASURED VALUE: 27
- COMPOUND: "COCCN1CN(C2c3ccccc3CSc3cc(Cl)ccc32)n2ccc(=O)c(O)c2C1=O (stereo not shown)"
  PARAMETER MEASURED: "IC50"
  VALUE UNITS: "nM"
  MEASURED VALUE: 75
- COMPOUND: "CC(C)N1C(=O)c2c(O)c(=O)ccn2N(C2c3ccccc3CCc3ccccc32)C1CN (stereo not shown)"
  PARAMETER MEASURED: "IC50"
  VALUE UNITS: "nM"
  MEASURED VALUE: 98
- COMPOUND: "CC(C)N1CC[C@@H](N2CN(C3c4ccccc4CCc4ccccc43)n3ccc(=O)c(O)c3C2=O)C1"
  PARAMETER MEASURED: "IC50"
  VALUE UNITS: "nM"
  MEASURED VALUE: 107
- COMPOUND: "CC(C)N1C[C@H](C2c3ccccc3CSc3ccccc32)n2ccc(=O)c(O)c2C1=O (stereo partly shown)"
  PARAMETER MEASURED: "IC50"
  VALUE UNITS: "nM"
  MEASURED VALUE: 73
- COMPOUND: "O=C1c2c(O)c(=O)ccn2N(C2c3ccccc3CCc3ccccc32)CN1CCCF"
  PARAMETER MEASURED: "IC50"
  VALUE UNITS: "nM"
  MEASURED VALUE: 41
- COMPOUND: "O=C1NCC(C2c3ccccc3CCc3ccccc32)n2ccc(=O)c(O)c21 (stereo not shown)"
  PARAMETER MEASURED: "IC50"
  VALUE UNITS: "nM"
  MEASURED VALUE: 49
- COMPOUND: "C[C@H](N1CN([C@@H]2c3ccccc3SCc3c(F)cccc32)n2ccc(=O)c(O)c2C1=O)C(F)(F)F"
  PARAMETER MEASURED: "IC50"
  VALUE UNITS: "nM"
  MEASURED VALUE: 177
- COMPOUND: "O=C1c2c(O)c(=O)ccn2[C@@H](C(c2ccccc2)c2ccccc2)CN1Cc1ccccc1"
  PARAMETER MEASURED: "IC50"
  VALUE UNITS: "nM"
  MEASURED VALUE: 101
